# condition parameters: 313.15 K; 15000 kPa; Liquid
measured attribute: mass density (kg/m3)
Answer in kg/m3, number only, no unit symbol.

Give its mass density value. Item: CCn1cc[n+](C)c1.F[B-](F)(F)F [1-ethyl-3-methylimidazolium tetrafluoroborate]
1295

If you can, please state the reported mass density value of CCn1cc[n+](C)c1.O=S(=O)([N-]S(=O)(=O)C(F)(F)F)C(F)(F)F .
1515

Which measured mass density value corresponds to CCCCCCCn1cc[n+](C)c1.O=S(=O)([N-]S(=O)(=O)C(F)(F)F)C(F)(F)F ?
1343

Reported mass density, compound CCCCCCCCn1cc[n+](C)c1.O=S(=O)([N-]S(=O)(=O)C(F)(F)F)C(F)(F)F : ____
1316

* * *

Provide the recorded mass density for the entries that follow.
# condition parameters: 313.15 K; 10000 kPa; Liquid
Please state the figure in kg/m3; there is no need to write the unit.

State the recorded mass density for this entry: CCn1cc[n+](C)c1.F[B-](F)(F)F [1-ethyl-3-methylimidazolium tetrafluoroborate]
1292

Look up mass density: CCn1cc[n+](C)c1.O=S(=O)([N-]S(=O)(=O)C(F)(F)F)C(F)(F)F
1511

Entry CCCCCCCn1cc[n+](C)c1.O=S(=O)([N-]S(=O)(=O)C(F)(F)F)C(F)(F)F has what mass density?
1339

Can you share its mass density? I mean this compound: CCCCCCCCn1cc[n+](C)c1.O=S(=O)([N-]S(=O)(=O)C(F)(F)F)C(F)(F)F
1312

* * *

# condition parameters: 323.15 K; 15000 kPa; Liquid
measured attribute: mass density (kg/m3)
Answer with a number only, understood to be in kg/m3.

Which value of mass density has been reported for CCCCCCCCn1cc[n+](C)c1.O=S(=O)([N-]S(=O)(=O)C(F)(F)F)C(F)(F)F in the records?
1307

What does the data say about its mass density? Entry: CCn1cc[n+](C)c1.F[B-](F)(F)F [1-ethyl-3-methylimidazolium tetrafluoroborate]
1287

Name the recorded mass density for CCn1cc[n+](C)c1.O=S(=O)([N-]S(=O)(=O)C(F)(F)F)C(F)(F)F .
1504

# lookup: mass density of CCCCCCCn1cc[n+](C)c1.O=S(=O)([N-]S(=O)(=O)C(F)(F)F)C(F)(F)F
1334

* * *

# condition parameters: 333.15 K; 30000 kPa; Liquid
Could you please report measured mass density for the items listed next?
Quick reminder: number only, in kg/m3, skip the unit.

Value lookup for mass density; key = CCn1cc[n+](C)c1.F[B-](F)(F)F [1-ethyl-3-methylimidazolium tetrafluoroborate]
1286

Fill in the blank: the reported mass density of CCCCCCCn1cc[n+](C)c1.O=S(=O)([N-]S(=O)(=O)C(F)(F)F)C(F)(F)F is ____.
1337

Returns the measured mass density for the input compound. Input: CCCCCCCCn1cc[n+](C)c1.O=S(=O)([N-]S(=O)(=O)C(F)(F)F)C(F)(F)F
1310

Can you share its mass density? I mean this compound: CCn1cc[n+](C)c1.O=S(=O)([N-]S(=O)(=O)C(F)(F)F)C(F)(F)F
1506

* * *

# condition parameters: 333.15 K; 2000 kPa; Liquid
measured attribute: mass density (kg/m3)
Numbers only here, please. The scale is kg/m3.

State the recorded mass density for this entry: CCCCCCCCn1cc[n+](C)c1.O=S(=O)([N-]S(=O)(=O)C(F)(F)F)C(F)(F)F
1288

I'd like to know its mass density. The compound in question is CCCCCCCn1cc[n+](C)c1.O=S(=O)([N-]S(=O)(=O)C(F)(F)F)C(F)(F)F
1315

Would you kindly share the measured mass density for CCn1cc[n+](C)c1.F[B-](F)(F)F [1-ethyl-3-methylimidazolium tetrafluoroborate] ?
1273

Can you look up the measured mass density of CCn1cc[n+](C)c1.O=S(=O)([N-]S(=O)(=O)C(F)(F)F)C(F)(F)F for me?
1483
